# System: C2A
# Protocol text: qHTS profiling for inhibitors of Plasmodium falciparum proliferation (AID 504749); further: nearly all actives have a fitted effect of over 60% in size
# Test conditions: P. falciparum in erythrocytes, SYBR Green DNA, 72 h; series mostly up to 28.7 µM
Inconclusive results are not listed. Activity calls are given as the source filed them. The call rests on the fitted dose curve; in most records, active means well fitted inhibition curve with a large enough effect; inconclusive means small, poorly fitted or top-dose-only effect; inactive means flat fitted curve, though single readings scatter.
Possible outcomes: yes for active, no for inactive

{"columns": ["Compound", "System name", "Assigned class"],
 "data": [
  ["C[C@]12CCC(=O)C=C1CC[C@@H]1[C@@H]2CC[C@]2(C)C(=O)CC[C@@H]12", "C2A", "no"],
  ["CC(C)(C)NCC(O)c1ccccc1Cl (stereo not given)", "C2A", "no"],
  ["CN1CCC(O)(c2ccc(F)cc2)C(C(=O)c2ccc(F)cc2)C1 (stereo not given)", "C2A", "no"],
  ["CN1C[C@H](C(=O)N[C@]2(C)O[C@@]3(O)[C@@H]4CCCN4C(=O)[C@H](Cc4ccccc4)N3C2=O)C=C2c3cccc4[nH]cc(c34)C[C@H]21", "C2A", "yes"],
  ["Clc1cccc(SC2CCNCC2)n1", "C2A", "no"],
  ["CC(C)=CC1C(C(=O)OCN2C(=O)C3=C(CCCC3)C2=O)C1(C)C (stereo not given)", "C2A", "no"],
  ["COc1c2c(cc3c1OCO3)CCN(C)C2", "C2A", "no"],
  ["CCC1(CC)C(=O)C=CNC1=O", "C2A", "no"],
  ["Clc1ccc(C(c2ccc(Cl)cc2)C(Cl)(Cl)Cl)cc1", "C2A", "no"],
  ["CC(C)(C)NCC(O)c1cc(Cl)c(N)c(C(F)(F)F)c1 (stereo not given)", "C2A", "yes"],
  ["CN1C(=O)CCS(=O)(=O)C1c1ccc(Cl)cc1 (stereo not given)", "C2A", "no"],
  ["NC(=O)c1cc([N+](=O)[O-])cc([N+](=O)[O-])c1", "C2A", "no"],
  ["O=C(N/N=C/c1ccc([N+](=O)[O-])o1)c1cc([N+](=O)[O-])cc([N+](=O)[O-])c1O", "C2A", "yes"],
  ["CCCCCCC(=O)CCCCCC/C=C/C[C@@H](O)[C@H](O)[C@@](N)(CO)C(=O)O", "C2A", "no"],
  ["O=C1CN=C(c2ccccc2)c2cc([N+](=O)[O-])ccc2N1", "C2A", "no"]
]}
